# system-tested: LC3C (Homo sapiens)
# Construct: insertion of full-length human GABARAP, GABARAP-L1, LC3A, and LC3C, and EcoRI and NotI restrictions sites for cloning of LC3B and GABARAP-L2; GST (followed by 3C protease site) (N); made in house; host or cells: bacteria (E. coli BL21 (DE3) pLysS is stated for the GST-ATG8 proteins of the overlay assay)
# Sequence (Q9BXW4 whole entry): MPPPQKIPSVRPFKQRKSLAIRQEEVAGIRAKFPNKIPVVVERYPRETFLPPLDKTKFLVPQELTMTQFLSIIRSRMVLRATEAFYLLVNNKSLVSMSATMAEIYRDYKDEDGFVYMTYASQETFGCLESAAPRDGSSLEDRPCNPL
# protocol-notes: BLI, LIR peptide binding to LC3C
# test-conditions: read-out: Kd (best-fit value)
Ends that are not written are not given here.
quantity-measured: pKd
Kindly note that pKd refers to -log10 of the concentration in mol/L and answer with the value alone.

**Query** What pKd value was documented for this sequence, SQKSDEEDFDIIEDLPLKLTI [PCM1 V1956D/ K1957I/ V1958I] ?
**Result** 5.63

**Query** // query pKd value for entry DDFVMVPAQFPGDLV [ULK1 (aa 355-369)]
**Result** 5.11

**Query** Entry SQKSDEEDFVIVEDLPLKLTI [PCM1 K1967I] has what pKd?
**Result** 6.42

**Query** # query: pKd of entry SQKSDEEDFVKVEDLALKLTI [PCM1 P1962A]
**Result** 4.97

**Query** Find the recorded pKd belonging to SQKSDEEDFVKIEDLPLKLTI [PCM1 V1959I] and report it.
**Result** 5.16

**Query** # pKd lookup, item DSSCDTDDFVMVPA [ULK1 (aa 349-362)]
**Result** 5.56
